Source listed as paper PMC11409709.

- Test system: colorectal adenocarcinoma (Caco-2)
- method summary: MTT assay, Caco-2
- Type: cell-based, human
- recorded conditions: Homo sapiens, Caco-2, 48 h, read-out: Anti-cancer activity CaCo-2 (IC50), MTT, 48 h
pIC50: −log10 of the molar value.
Listing of entries alongside the reported pIC50.
measured parameter: pIC50

molecule="CCOP(=O)(OCC)C(Nc1ncc(Cl)cc1Cl)c1ccccc1O (stereo not shown) [Compound 3g]" target_or_test_system="colorectal adenocarcinoma (Caco-2)" value_measured=5.52
molecule="CCOP(=O)(OCC)C(Nc1ncc(Cl)cc1Cl)c1ccc(O)c(OC)c1 (stereo not shown) [Compound 3a]" target_or_test_system="colorectal adenocarcinoma (Caco-2)" value_measured=5.48
molecule="CCOP(=O)(OCC)C(Nc1ncc(Cl)cc1Cl)c1ccsc1 (stereo not shown) [Compound 3f]" target_or_test_system="colorectal adenocarcinoma (Caco-2)" value_measured=5.77
molecule="CCOP(=O)(OCC)C(Nc1ncc(Cl)cc1Cl)c1ccccc1OC (stereo not shown) [Compound 3c]" target_or_test_system="colorectal adenocarcinoma (Caco-2)" value_measured=5.64
